Source listed as the supplement of paper PMC6555819.

Exercise: state measured PBM binding z-score for each of the sequences provided.
system: RARg homodimer (NR concentration 270 nM); experiment: PBM binding z-score (relative to random genomic background probes); higher = stronger binding; sequences stand for … in GC…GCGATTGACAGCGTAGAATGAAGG
Numbers only.

// below: answered sequences
Sample GCATATAGGTTATACAAGGTGAAAGTCCGATTGT — what was its PBM binding z-score?
1.41

What does the data say about its PBM binding z-score? Entry: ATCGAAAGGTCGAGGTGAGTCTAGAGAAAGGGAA
4.48

# PBM binding z-score lookup, item AGAACGGGGGCAATGAGTTGATAGCACGGGTGGC
2.43

# ---- query sequence ----
Given the sequence ATCTCTAGGTAAAGGTTCAGTGAATCCCGAGGAT , what is its reported PBM binding z-score?
1.05
